# Tested on: Gli-responsive luciferase reporter cells, SUFU pathway antagonism
# measurement-description: Gli-SUFU pathway antagonists, dose response, cell-based, luciferase luminescence, uHTS hits (AID 602464)
Kindly supply the reported pIC50 values for the records listed here.
Please keep in mind that pIC50 is minus log10 of the molar concentration; only the number is needed.

QUERY: // map COc1ccc2c(c1)c(C)cc[n+]2Cc1ccccc1 to recorded pIC50 (system: Gli-responsive luciferase reporter cells, SUFU pathway antagonism)
RESULT: 5.41

QUERY: // same read-out, input: O=C(Nc1ccc(C(F)(F)F)cc1)C1CCN(S(=O)(=O)c2ccc(N3CCCC3=O)cc2)CC1
RESULT: 5.49

QUERY: // same read-out, input: CCC(C)[C@H]1CN=C(N)N1CCc1cccc2ccccc12 (stereo not given in full)
RESULT: 5.18

QUERY: // same read-out, input: CN(Cc1ccc(OC(F)F)cc1)C(=O)c1cccc(S(=O)(=O)N2CCN(Cc3ccccc3)CC2)c1
RESULT: 5.16

QUERY: // same read-out, input: COc1ccc(-c2noc(CCCCC(=O)N3CCN(c4cc(C)ccc4C)CC3)n2)cc1
RESULT: 5.40

---

# Tested on: Gli-responsive luciferase reporter cells, SUFU pathway antagonism
# measurement-description: Gli-SUFU pathway antagonists, dose response, cell-based, luciferase luminescence, uHTS hits (AID 602464)
Active and inactive are the calls of the source. Cut-off read from the data, not from the text of the source: active = IC50 below about 20 µM; inactive = the rest.
Returns: one label drawn from active, inactive

QUERY: Given COc1ccc(NS(=O)(=O)c2ccc(N3CCN(CCO)CC3)c([N+](=O)[O-])c2)cc1 , state the outcome it received in this test.
RESULT: active

QUERY: // same read-out, input: CCNc1nc(CN2CCCCC2)nc2scc(-c3ccccc3)c12
RESULT: active

QUERY: // same read-out, input: Cc1nc2ccccc2c2c1CC(C(C)(Cl)Br)O2 (stereo unspecified)
RESULT: active

QUERY: // same read-out, input: COc1nnc(-c2ccc(N3CCCCC3)c(N)c2)c2ccccc12
RESULT: active

QUERY: // same read-out, input: O=S(=O)(NCc1ccncc1)c1ccc(S(=O)(=O)NCC2CCCO2)cc1 (stereo unspecified)
RESULT: active

QUERY: // same read-out, input: O=C(Cn1cc(C(=O)c2ccco2)c2ccccc21)Nc1ccccc1F
RESULT: active

QUERY: // same read-out, input: CC(NC(=O)c1cc2c(=O)n3ccccc3nc2n(CC2CCCO2)c1=N)c1ccccc1 (stereo unspecified)
RESULT: inactive

QUERY: // same read-out, input: Cc1ccc2c(c1)S/C(=C/c1ccc[n+](C)c1)N2CCO
RESULT: active

QUERY: // same read-out, input: CCN(CC)C(=O)c1ccc(S(=O)(=O)N2CCC(c3nc4ccccc4s3)CC2)cc1
RESULT: active

QUERY: // same read-out, input: Cc1ccc(C(=O)N2CCN3C(=O)c4ccccc4C23c2ccc(Cl)cc2)cc1 (stereo unspecified)
RESULT: active

QUERY: // same read-out, input: O=C(c1cc2sccc2n1Cc1ccccc1)N1CCN(c2nc3ccccc3s2)CC1
RESULT: active

---

# System: Gli-responsive luciferase reporter cells, SUFU pathway antagonism
# measurement-description: Gli-SUFU pathway antagonists, dose response, cell-based, luciferase luminescence, uHTS hits (AID 602464)
Calls of active or inactive are those of the source. Rule as the data show it: active = IC50 below about 20 µM; inactive = the rest.
Returns: one label drawn from class 1 = active, class 0 = inactive

QUERY: Given c1ccc(C[n+]2cccc(-c3ccccc3)c2)cc1 , state the outcome it received in this test.
RESULT: class 1

QUERY: // same read-out, input: COCCn1c(CN2CCC(Cc3ccccc3)CC2)nc2c1c(=O)n(C)c(=O)n2C
RESULT: class 1

QUERY: // same read-out, input: CCCCOCCCNc1ncnc2c1[nH]c1ccccc12
RESULT: class 1

QUERY: // same read-out, input: O=C(N[C@@H]1C/C=C\C[C@@H](CC(=O)N(CCO)Cc2ccccc2)C(=O)NC[C@H](c2ccccc2)OC1=O)OCC1c2ccccc2-c2ccccc21
RESULT: class 1

QUERY: // same read-out, input: CCN(CC)S(=O)(=O)c1ccc(S(=O)(=O)Nc2c(C)nn(C)c2C)cc1
RESULT: class 1

QUERY: // same read-out, input: CCc1c(C)nc2ncnn2c1N1CCN(S(=O)(=O)c2ccc(OC)cc2)CC1
RESULT: class 1

QUERY: // same read-out, input: CCOc1ccc2[nH]c3c(N4CCN(C(=O)c5ccco5)CC4)ncnc3c2c1
RESULT: class 1

QUERY: // same read-out, input: CCCCCCCN1C2=NCCCN2c2ccccc21
RESULT: class 1

QUERY: // same read-out, input: CN1/C(=C\C(=O)COC(=O)CNC(=O)c2ccc3ccccc3c2)C(C)(C)c2ccccc21
RESULT: class 1

QUERY: // same read-out, input: Cc1ccc(Cl)cc1N1CCN(C(=O)CSc2nnc3n2C(C)(C)Cc2ccccc2-3)CC1
RESULT: class 1

QUERY: // same read-out, input: CCOC(CN=c1nc(N(C)C)ss1)OCC
RESULT: class 0

QUERY: // same read-out, input: Nc1ccc(Br)cc1-c1nc2ccccc2[nH]c1=O
RESULT: class 1

QUERY: // same read-out, input: CCCn1c2c(c(=N)c3c1CCC3)CCCC2
RESULT: class 1

QUERY: // same read-out, input: O=C(Cn1cc(C(=O)C2CC2)c2ccccc21)Nc1ccccc1Cl
RESULT: class 1

QUERY: // same read-out, input: N=c1c(-c2nc3ccccc3[nH]2)cc(C(=O)c2ccco2)nn1-c1ccccc1
RESULT: class 0

QUERY: // same read-out, input: CCN1C(=O)CCN(C2CCCC2)c2nc(Nc3ccc(C(=O)NC4CCN(C)CC4)cc3OC)ncc21
RESULT: class 1

QUERY: // same read-out, input: COc1ccccc1CN(Cc1nc2ccccc2c(=O)[nH]1)S(=O)(=O)c1ccc(C)cc1
RESULT: class 0

QUERY: // same read-out, input: Cc1cccc(C)c1NC(=S)N(CCN1CCCCCC1)Cc1ccco1
RESULT: class 0

QUERY: // same read-out, input: CCCCc1ccc(NC(=O)C(=O)NCCN2CCN(Cc3ccc([N+](=O)[O-])cc3)CC2)cc1
RESULT: class 1

QUERY: // same read-out, input: C=CCNC(=S)/N=c1/ccccn1Cc1ccccc1
RESULT: class 1

QUERY: // same read-out, input: Cc1nnsc1C(=O)Nc1ccc(S(=O)(=O)N2CCC(C)CC2)cc1
RESULT: class 0

QUERY: // same read-out, input: O=c1c2ccccc2sc2c(CO)ccc(NCCN3CCCCC3)c12
RESULT: class 0
